EC50 values by entry
biological target: human PCSK9 D347Y recombinant protein (human, UniProt Q8NBP7 31-692, biotin label (sites not given) in Examples 3 and 9); experiment: ELISA, antibody coated at 1 ug/ml, biotin-labeled PCSK9 (D347Y by the legend) titrated, HRP-streptavidin; the concentration is that of PCSK9; unit taken from the axis log(pg/ml)
Sequence (Q8NBP7 31-692 D374Y): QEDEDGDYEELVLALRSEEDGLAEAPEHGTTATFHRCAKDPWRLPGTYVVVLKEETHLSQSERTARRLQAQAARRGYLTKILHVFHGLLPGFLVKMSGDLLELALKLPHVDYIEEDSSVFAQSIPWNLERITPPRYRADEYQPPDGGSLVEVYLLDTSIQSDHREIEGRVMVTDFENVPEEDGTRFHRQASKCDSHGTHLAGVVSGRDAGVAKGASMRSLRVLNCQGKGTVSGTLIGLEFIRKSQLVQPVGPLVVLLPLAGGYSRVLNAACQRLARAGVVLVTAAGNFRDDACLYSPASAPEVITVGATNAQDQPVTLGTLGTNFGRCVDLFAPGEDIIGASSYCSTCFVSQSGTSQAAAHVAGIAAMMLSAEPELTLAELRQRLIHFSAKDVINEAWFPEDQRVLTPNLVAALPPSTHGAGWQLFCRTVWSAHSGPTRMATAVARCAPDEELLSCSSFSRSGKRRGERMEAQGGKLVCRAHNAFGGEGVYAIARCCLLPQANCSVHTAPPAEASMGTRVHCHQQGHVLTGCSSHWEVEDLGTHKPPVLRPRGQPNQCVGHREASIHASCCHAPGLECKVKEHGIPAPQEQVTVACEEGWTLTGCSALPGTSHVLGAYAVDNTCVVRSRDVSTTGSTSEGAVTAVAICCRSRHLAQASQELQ
Give the quantity in µg/mL, number only.

Here is how some binders turned out for EC50.
- BINDER: "3G12 murine-derived anti-PCSK9 monoclonal antibody (antibody, V domains shown, Mouse hybridoma antibody) VH: QVQLKQSGPSLLQPSQSLSITCTVSGFSLTSYGIHWVRQSPGKGLEWLGVIWRGGITDYNAPFMSRLNITKDNSKNQVFFKMNSLQVDDTAIYYCANHRDWGQGTLVTVSA VL: DIQMTQSPSSLSASLGGKVTITCKASQDINKYIDWYQHKPGKSPRLLIHYASTLQPGIPSRFSGSGSGRDYSFSISNLEPEDIATYYCLQYDDLWTFGGGTKLEIK"
  EC50 [µg/mL]: 0.0835
- BINDER: "2B12 murine-derived anti-PCSK9 monoclonal antibody (antibody, V domains shown, Mouse hybridoma antibody) VH: DVQLQESGPGLVKPSQSLSLTCSVTGFSITSDYAWNWIRQFPGNKLEWMGYISYSGTTNYNPSLKSRISITRDTSKNQFFLHLNSVITEDTATYYCARREGHYSWFPYWGQGTLVTVSA VL: DIVLTQSPASLAVSLGQRATISCRASESVEYYGTSLMHWYQHKPGQTPKLLIYSGSNVESGVPARFSGSGSGTDFSLNIHPVEEDDIAMYFCQQSREVPSTFGGGTKLEIK"
  EC50 [µg/mL]: 0.0389

Proceeding to the next binder to report its EC50.
Return reported EC50; argument: 1B11 murine-derived anti-PCSK9 monoclonal antibody (antibody, V domains shown, Mouse hybridoma antibody) VH: QVQLQQSGAVLVRPGTSIKVSCKASGYAFTNYLIEWIKKRPGQGLEWIGMINPGSGDTNFNEKFKAKATLTADKSSTTAYMQLNSLTFDDSAVYFCARSSQLGLPYWGQGTLVTVSA VL: DIQMTQSPASLSASVGETVTITCRASENIYSYLAWYQQKQENSPQLLVYNAYTLADGVPSRFSGSGSGTQFSLKIISLQPEDFGNYYCQHHYRTPPTFGGGTKLEIK 0.143
